Every entry's value here was drawn from ChEMBL document CHEMBL1773033.

# target-or-system: Melanocortin receptor 5 (Homo sapiens)
# Sequence (P33032 whole entry): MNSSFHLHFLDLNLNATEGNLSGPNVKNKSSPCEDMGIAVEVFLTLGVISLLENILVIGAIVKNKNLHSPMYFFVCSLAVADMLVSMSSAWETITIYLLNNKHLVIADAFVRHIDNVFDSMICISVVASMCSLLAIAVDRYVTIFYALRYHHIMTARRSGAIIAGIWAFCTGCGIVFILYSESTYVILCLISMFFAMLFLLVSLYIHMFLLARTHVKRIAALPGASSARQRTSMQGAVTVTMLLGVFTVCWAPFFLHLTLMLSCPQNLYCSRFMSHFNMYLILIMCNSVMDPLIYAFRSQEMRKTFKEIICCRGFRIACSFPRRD
# experiment-description: Agonist activity at human MC5R expressed in HEK293 cells assessed as intracellular cAMP accumulation
# Format: functional, cell-based
Positions of bridges follow the written chain, without caps; N, C: chain ends. Non-standard residues stand in square brackets, D forms with d. Residues, ends and D or L forms follow the SMILES beside them.
outcome-measure: EC50

1. C[C@@H]1NC(=O)[C@@H](CCCNC(=N)N)NC(=O)[C@H](Cc2ccccc2)NC(=O)[C@H](Cc2c[nH]c3ccccc23)NC(=O)[C@H](CCCNC(=N)N)NC(=O)CC[C@@H](C(N)=O)NC(=O)[C@H](Cc2ccccc2)NC1=O
Not Active
2. CC(=O)N[C@H]1CC(=O)NCCCC[C@@H](C(N)=O)NC(=O)[C@@H](CCC(N)=O)NC(=O)[C@H](Cc2ccccc2)NC(=O)[C@H](Cc2c[nH]c3ccccc23)NC(=O)[C@H](CCCNC(=N)N)NC1=O (Ac-DRWF[dQ]K-NH2; lactam 1-6)
Not Active
3. C[C@@H]1NC(=O)[C@H](Cc2cnc[nH]2)NC(=O)[C@@H](Cc2ccccc2)NC(=O)[C@H](Cc2c[nH]c3ccccc23)NC(=O)[C@H](CCCNC(=N)N)NC(=O)CC[C@@H](C(N)=O)NC(=O)[C@H](Cc2ccccc2)NC1=O (RW[dF]HAFE-NH2; lactam N-7)
Not Active
